Biological target: human PPARα (Homo sapiens)
Construct: expressed in transfected cells; host or cells: CV-1 cells
Sequence (Q07869 167-468): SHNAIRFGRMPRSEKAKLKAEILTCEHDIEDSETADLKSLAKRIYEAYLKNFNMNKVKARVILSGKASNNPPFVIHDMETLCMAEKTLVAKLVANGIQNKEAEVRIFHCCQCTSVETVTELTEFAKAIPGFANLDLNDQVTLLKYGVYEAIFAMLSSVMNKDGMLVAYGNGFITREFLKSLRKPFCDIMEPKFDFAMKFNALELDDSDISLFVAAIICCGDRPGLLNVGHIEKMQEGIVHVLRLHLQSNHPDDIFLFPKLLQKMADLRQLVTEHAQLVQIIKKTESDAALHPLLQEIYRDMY
Test: Luciferase assay using human PPARα (Gal4-PPARα LBD chimeric receptor, CV-1 cells)
Assay type: cell-based
Conditions: PPARα agonistic activity, compound 10 μM, luciferase activity of carbacyclin (10 μM) defined as 1.0, 42 hours
property name: Relative Activity to a positive control compound (carbacyclin = 1)

>>> quantitative_result("Cc1ccc(-c2nc(CCOCC#CCSCC(=O)O)c(C)o2)cc1 [Example 5 (10)]")
1.5
>>> quantitative_result("Cc1oc(-c2ccccc2)nc1CCOCC#CCSCC(=O)O [Example 5 (2)]")
2.9
>>> quantitative_result("Cc1oc(-c2ccc3c(c2)OCO3)nc1CCOCC#CCSCC(=O)O [Example 5 (11)]")
1.7
>>> quantitative_result("Cc1oc(-c2ccccc2)nc1CCOCCCCSCC(=O)O [Example 5 (8)]")
2.2
